EXPERIMENT NOTES: Pharmacokinetics of released PEGylated protease inhibitor following P.O. administration of prodrugs in rats
Format: in vivo, male Sprague-Dawley rats
MEASUREMENT CONTEXT: mPEG6-atazanavir in plasma after PO administration of mPEG6-ATV or of the listed prodrug, rats (n = 4-5)
Below is a list of entries, each paired with its recorded MRT last Mean value.
MEASURE NAME: MRT last Mean (h)

>>> quantitative_readout("COCCOCCOCCOCCOCCOCCOC(=O)NC(C(=O)NC(Cc1ccccc1)C(CN(Cc1ccc(-c2ccccn2)cc1)NC(=O)C(NC(=O)OC)C(C)(C)C)OCOC)C(C)(C)C (centres unmarked)")
3.11
>>> quantitative_readout("COCCOCCOCCOCCOCCOCCOC(=O)NC(C(=O)NC(Cc1ccccc1)C(CN(Cc1ccc(-c2ccccn2)cc1)NC(=O)C(NC(=O)OC)C(C)(C)C)OC(=O)C(N)C(C)C)C(C)(C)C.Cl [mPEG6-ATV-L-valine, mPEG6-Atazanavir-L-Valine HCl]")
18.9
>>> quantitative_readout("CCC(=O)O[C@@H](CN(Cc1ccc(-c2ccccn2)cc1)NC(=O)[C@@H](NC(=O)OC)C(C)(C)C)[C@H](Cc1ccccc1)NC(=O)[C@@H](NC(=O)OCCOCCOCCOCCOCCOCCOC)C(C)(C)C [C2H5CO-mPEG6-ATV, mPEG6-Atazanavir Propionate]")
8.28
>>> quantitative_readout("COCCOCCOCCOCCOCCOCCOC(=O)NC(C(=O)NC(Cc1ccccc1)C(CN(Cc1ccc(-c2ccccn2)cc1)NC(=O)C(NC(=O)OC)C(C)(C)C)OC(=O)C(N)CC(C)C)C(C)(C)C.Cl (centres unmarked)")
10.2
>>> quantitative_readout("COCCOCCOCCOCCOCCOCCOC(=O)NC(C(=O)NC(Cc1ccccc1)C(CN(Cc1ccc(-c2ccccn2)cc1)NC(=O)C(NC(=O)OC)C(C)(C)C)OC(=O)C(CC(C)C)NC(=O)C(N)Cc1ccccc1)C(C)(C)C.Cl (stereo not drawn) [Phe-Leu-mPEG6-ATV, Phe-Leu-mPEG6-Atazanavir Hydrochloride]")
11.0
>>> quantitative_readout("CCOC(C)OC(CN(Cc1ccc(-c2ccccn2)cc1)NC(=O)C(NC(=O)OC)C(C)(C)C)C(Cc1ccccc1)NC(=O)C(NC(=O)OCCOCCOCCOCCOCCOCCOC)C(C)(C)C (mixture of isomers)")
4.33
>>> quantitative_readout("CCCC(=O)OC(CN(Cc1ccc(-c2ccccn2)cc1)NC(=O)C(NC(=O)OC)C(C)(C)C)C(Cc1ccccc1)NC(=O)C(NC(=O)OCCOCCOCCOCCOCCOCCOC)C(C)(C)C (centres unmarked) [C3H7CO-mPEG6-ATV, mPEG6-Atazanavir Butyrate]")
1.36
>>> quantitative_readout("COCCOCCOCCOCCOCCOCCOC(=O)NC(C(=O)NC(Cc1ccccc1)C(CN(Cc1ccc(-c2ccccn2)cc1)NC(=O)C(NC(=O)OC)C(C)(C)C)OC(=O)CNC(=O)C(N)C(C)C)C(C)(C)C.Cl (stereo not drawn) [Val-Gly-mPEG6-ATV, Val-GIy-mPEG6-Atazanavir Hydrochloride]")
24.3

###

EXPERIMENT NOTES: Pharmacokinetics of released PEGylated protease inhibitor following P.O. administration of prodrugs in rats
Type: in vivo, male Sprague-Dawley rats
MEASUREMENT CONTEXT: mPEG3-atazanavir in plasma after PO administration of mPEG3-ATV or of the listed prodrug, rats (n = 4-5)
MEASURE NAME: Tmax* Median (h)

>>> quantitative_readout("CCOC(=O)OC(CN(Cc1ccc(-c2ccccn2)cc1)NC(=O)C(NC(=O)OC)C(C)(C)C)C(Cc1ccccc1)NC(=O)C(NC(=O)OCCOCCOCCOC)C(C)(C)C (stereo not shown) [mPEG3-atazanavir ethyl carbonate, mPEG3-Atazanavir Ethyl Carbonate]")
1.00
>>> quantitative_readout("COCCOCCOCCOC(=O)N[C@H](C(=O)N[C@@H](Cc1ccccc1)[C@H](CN(Cc1ccc(-c2ccccn2)cc1)NC(=O)[C@@H](NC(=O)OC)C(C)(C)C)OC(=O)[C@H](Cc1ccccc1)NC(=O)[C@@H](N)CC(C)C)C(C)(C)C.Cl [Leu-Phe-mPEG3-Atazanavir, Leu-Phe-mPEG3-Atazanavir Hydrochloride]")
2.00
>>> quantitative_readout("COCCOCCOCCOC(=O)NC(C(=O)NC(Cc1ccccc1)C(CN(Cc1ccc(-c2ccccn2)cc1)NC(=O)C(NC(=O)OC)C(C)(C)C)OC(=O)CNC(=O)C(N)CC(C)C)C(C)(C)C.Cl (stereo not drawn) [Leu-Gly-mPEG3-Atazanavir, Leu-Gly-mPEG3-Atazanavir Hydrochloride]")
4.00
>>> quantitative_readout("CCOC(C)OC(CN(Cc1ccc(-c2ccccn2)cc1)NC(=O)C(NC(=O)OC)C(C)(C)C)C(Cc1ccccc1)NC(=O)C(NC(=O)OCCOCCOCCOC)C(C)(C)C (mixture of isomers)")
0.500
>>> quantitative_readout("CCOC(CC)OC(CN(Cc1ccc(-c2ccccn2)cc1)NC(=O)C(NC(=O)OC)C(C)(C)C)C(Cc1ccccc1)NC(=O)C(NC(=O)OCCOCCOCCOC)C(C)(C)C (mixture of isomers)")
1.00
>>> quantitative_readout("CCOCO[C@@H](CN(Cc1ccc(-c2ccccn2)cc1)NC(=O)[C@@H](NC(=O)OC)C(C)(C)C)[C@H](Cc1ccccc1)NC(=O)[C@@H](NC(=O)OCCOCCOCCOC)C(C)(C)C")
0.750
>>> quantitative_readout("COCCOCCOCCOC(=O)NC(C(=O)NC(Cc1ccccc1)C(CN(Cc1ccc(-c2ccccn2)cc1)NC(=O)C(NC(=O)OC)C(C)(C)C)OC(=O)CCCC(=O)O)C(C)(C)C (stereo not shown)")
24.0

###

Below is a list of entries, each paired with its recorded MRT last Mean value.
EXPERIMENT NOTES: Pharmacokinetics of released PEGylated protease inhibitor following P.O. administration of prodrugs in rats
Type: in vivo, male Sprague-Dawley rats
MEASUREMENT CONTEXT: mPEG5-atazanavir in plasma after PO administration of mPEG5-ATV or of the listed prodrug, rats (n = 4-5)
Description: Pharmacokinetic analysis of protease inhibitors described herein was conducted. To evaluate the pharmacokinetics of PEGylated protease inhibitor conjugates with releasable lipophilic attachments, test compounds were administered to male Sprague-Dawley rats. At various times following test article administration, serial blood samples were collected from indwelling jugular vein catheters and transferred to micro-tubes containing 7.5 μL of 20% w/v K2EDTA as an anticoagulant. […]
MEASURE NAME: MRT last Mean (h)

>>> quantitative_readout("CCCC(=O)OC(CN(Cc1ccc(-c2ccccn2)cc1)NC(=O)C(NC(=O)OC)C(C)(C)C)C(Cc1ccccc1)NC(=O)C(NC(=O)OCCOCCOCCOCCOCCOC)C(C)(C)C (centres unmarked) [C3H7CO-mPEG5-ATV, mPEG5-Atazanavir Butyrate]")
0.984
>>> quantitative_readout("COCCOCCOCCOCCOCCOC(=O)NC(C(=O)NC(Cc1ccccc1)C(CN(Cc1ccc(-c2ccccn2)cc1)NC(=O)C(NC(=O)OC)C(C)(C)C)OC(=O)CNC(=O)C(N)Cc1ccccc1)C(C)(C)C.Cl (stereo not drawn) [Phe-Gly-mPEG5-Atazanavir HCl, Phe-Gly-mPEG5-Atazanavir Hydrochloride]")
12.0

###

EXPERIMENT NOTES: Pharmacokinetics of released PEGylated protease inhibitor following P.O. administration of prodrugs in rats
Assay type: in vivo, male Sprague-Dawley rats
MEASUREMENT CONTEXT: mPEG5-atazanavir in plasma after PO administration of mPEG5-ATV or of the listed prodrug, rats (n = 4-5)
MEASURE NAME: MRT last Mean (h)

>>> quantitative_readout("COCCOCCOCCOCCOCCOC(=O)NC(C(=O)NC(Cc1ccccc1)C(CN(Cc1ccc(-c2ccccn2)cc1)NC(=O)C(NC(=O)OC)C(C)(C)C)OCOC)C(C)(C)C (stereo not shown)")
4.76
>>> quantitative_readout("CCOC(=O)O[C@@H](CN(Cc1ccc(-c2ccccn2)cc1)NC(=O)[C@@H](NC(=O)OC)C(C)(C)C)[C@H](Cc1ccccc1)NC(=O)[C@@H](NC(=O)OCCOCCOCCOCCOCCOC)C(C)(C)C.Cl [mPEG5-Atazanavir - Ethyl Carbonate HCl, mPEG5-Atazanavir Ethyl Carbonate]")
8.51
>>> quantitative_readout("CCCCCC(=O)O[C@@H](CN(Cc1ccc(-c2ccccn2)cc1)NC(=O)[C@@H](NC(=O)OC)C(C)(C)C)[C@H](Cc1ccccc1)NC(=O)[C@@H](NC(=O)OCCOCCOCCOCCOCCOC)C(C)(C)C [C5H11CO-mPE5-ATV, C5H11CO-mPEG5-atazanavir]")
2.42
>>> quantitative_readout("COCCOCCOCCOCCOCCOC(=O)NC(C(=O)NC(Cc1ccccc1)C(CN(Cc1ccc(-c2ccccn2)cc1)NC(=O)C(NC(=O)OC)C(C)(C)C)OC(=O)COCCOC(=O)C(Cc1ccccc1)NC(=O)C(N)Cc1ccccc1)C(C)(C)C.Cl (stereo not drawn) [CME Phe-Phe-mPEG5-Atazanavir HCl, mPEG5-atazanavir-ethoxy-CME-Phe-Phe]")
23.9
